STUDY_SYSTEM: HLA-B*07 (Homo sapiens)
PROTOCOL_DETAILS: MHC binding assay (UV-ligand exchange, ELISA of stabilized MHC complexes)
RUN_PARAMETERS: peptide exchange yield on HLA-B*07, UV-ligand exchange
MEASUREMENT_KIND: Peptide exchange

SUBSTANCE	STUDY_SYSTEM	RESULT
295 (HPRWIEPTVM; listed as Homo sapiens) [compound 295]	HLA-B*07 (Homo sapiens)	++++ (>75% = ++++)
203 (KPRGPIDI; listed as Homo sapiens) [compound 203]	HLA-B*07 (Homo sapiens)	++ (>20% = ++)
189 (QPQCSTHIL; listed as Homo sapiens) [compound 189]	HLA-B*07 (Homo sapiens)	++++ (>75% = ++++)
17 (SPAAPLSPASSL; listed as Homo sapiens) [compound 17]	HLA-B*07 (Homo sapiens)	++++ (>75% = ++++)
114 (FVPPSGPSNPM; listed as Homo sapiens) [compound 114]	HLA-B*07 (Homo sapiens)	++ (>20% = ++)
378 (SPRQPRLDF; listed as Homo sapiens) [compound 378]	HLA-B*07 (Homo sapiens)	++++ (>75% = ++++)

**Query** Form field: reported Peptide exchange of 232 (TAYPSLRLL; listed as Homo sapiens) [compound 232]
**Result** +++ (>50 = +++)

**Query** Now consider 113 (KPHLDRRGAVI; listed as Homo sapiens) [compound 113] .
**Result** ++++ (>75% = ++++)

**Query** Now consider 212 (VPYAAQAAL; listed as Homo sapiens) [compound 212] .
**Result** ++++ (>75% = ++++)

**Query** Now consider 176 (QPLDICHSF; listed as Homo sapiens) [compound 176] .
**Result** ++++ (>75% = ++++)

**Query** Now consider 27 (RIRVTSEVL; listed as Homo sapiens) [compound 27] .
**Result** +++ (>50 = +++)

---

STUDY_SYSTEM: HLA-B*07 (Homo sapiens)
PROTOCOL_DETAILS: MHC binding assay (UV-ligand exchange, ELISA of stabilized MHC complexes)
RUN_PARAMETERS: peptide exchange yield on HLA-B*07, UV-ligand exchange

SUBSTANCE	STUDY_SYSTEM	Peptide exchange
65 (FPNVYSTLVL; listed as Homo sapiens) [compound 65]	HLA-B*07 (Homo sapiens)	++++ (>75% = ++++)
224 (SPIIHSILL; listed as Homo sapiens) [compound 224]	HLA-B*07 (Homo sapiens)	++++ (>75% = ++++)
60 (RPYSIYPHGVTF; listed as Homo sapiens) [compound 60]	HLA-B*07 (Homo sapiens)	++++ (>75% = ++++)

---

STUDY_SYSTEM: HLA-B*07 (Homo sapiens, UniProt P01889)
PROTOCOL_DETAILS: MHC binding assay (UV-ligand exchange, ELISA of stabilized MHC complexes)
RUN_PARAMETERS: peptide exchange yield on HLA-B*07, UV-ligand exchange
MEASUREMENT_KIND: Peptide exchange

Worked cases, answers included:
SUBSTANCE	STUDY_SYSTEM	Peptide exchange
253 (MPVDSFNSML; listed as Homo sapiens) [compound 253]	HLA-B*07 (Homo sapiens, UniProt P01889)	++++ (>75% = ++++)
172 (SAQSLHPVL; listed as Homo sapiens) [compound 172]	HLA-B*07 (Homo sapiens, UniProt P01889)	+++ (>50 = +++)
358 (APSMLRKNQL; listed as Homo sapiens) [compound 358]	HLA-B*07 (Homo sapiens, UniProt P01889)	+++ (>50 = +++)
229 (FPNAGPRHLL; listed as Homo sapiens) [compound 229]	HLA-B*07 (Homo sapiens, UniProt P01889)	+++ (>50 = +++)

In the following, a different substance is considered.
**Query** Form field: reported Peptide exchange of 352 (LPAFSKIGGIL; listed as Homo sapiens) [compound 352]
**Result** ++++ (>75% = ++++)

---

STUDY_SYSTEM: HLA-B*07 (Homo sapiens, UniProt P01889)
PROTOCOL_DETAILS: MHC binding assay (UV-ligand exchange, ELISA of stabilized MHC complexes)
RUN_PARAMETERS: peptide exchange yield on HLA-B*07, UV-ligand exchange
MEASUREMENT_KIND: Peptide exchange

Worked cases, answers included:
SUBSTANCE	STUDY_SYSTEM	Peptide exchange
76 (KPKVESQAL; listed as Homo sapiens) [compound 76]	HLA-B*07 (Homo sapiens, UniProt P01889)	++++ (>75% = ++++)
160 (IPVSHPVLTF; listed as Homo sapiens) [compound 160]	HLA-B*07 (Homo sapiens, UniProt P01889)	++ (>20% = ++)
361 (SPYGSDRLVQL; listed as Homo sapiens) [compound 361]	HLA-B*07 (Homo sapiens, UniProt P01889)	++++ (>75% = ++++)
89 (FLIPRAGWLAGL; listed as Homo sapiens) [compound 89]	HLA-B*07 (Homo sapiens, UniProt P01889)	++ (>20% = ++)
46 (QPISGNPVTL; listed as Homo sapiens) [compound 46]	HLA-B*07 (Homo sapiens, UniProt P01889)	+++ (>50 = +++)
488 (LPLGGLPLLI; listed as Homo sapiens) [compound 488]	HLA-B*07 (Homo sapiens, UniProt P01889)	+++ (>50 = +++)
216 (LPWEQNEQV; listed as Homo sapiens) [compound 216]	HLA-B*07 (Homo sapiens, UniProt P01889)	+++ (>50 = +++)
5 (LPSLSHCSQL; listed as Homo sapiens) [compound 5]	HLA-B*07 (Homo sapiens, UniProt P01889)	++++ (>75% = ++++)
103 (REPIMKADML; listed as Homo sapiens) [compound 103]	HLA-B*07 (Homo sapiens, UniProt P01889)	++ (>20% = ++)
332 (SPYAGSTAF; listed as Homo sapiens) [compound 332]	HLA-B*07 (Homo sapiens, UniProt P01889)	++++ (>75% = ++++)

**Query** Form field: reported Peptide exchange of 353 (KPRATWTL; listed as Homo sapiens) [compound 353]
**Result** +++ (>50 = +++)

**Query** Now consider 246 (RPILKEQSSSSF; listed as Homo sapiens) [compound 246] .
**Result** ++++ (>75% = ++++)

**Query** Now consider 101 (KPGLPGLK; listed as Homo sapiens) [compound 101] .
**Result** + (>10% = +)

**Query** Now consider 141 (YGPYGSGSGW; listed as Homo sapiens) [compound 141] .
**Result** ++ (>20% = ++)

**Query** Now consider 373 (LPKPDLPQLI; listed as Homo sapiens) [compound 373] .
**Result** + (>10% = +)

**Query** Now consider 13 (LPNTGRIGQL; listed as Homo sapiens) [compound 13] .
**Result** +++ (>50 = +++)

---

STUDY_SYSTEM: HLA-B*07 (Homo sapiens)
PROTOCOL_DETAILS: MHC binding assay (UV-ligand exchange, ELISA of stabilized MHC complexes)
RUN_PARAMETERS: peptide exchange yield on HLA-B*07, UV-ligand exchange
MEASUREMENT_KIND: Peptide exchange

Worked cases, answers included:
SUBSTANCE	STUDY_SYSTEM	Peptide exchange
466 (SPMEAILVSRL; listed as Homo sapiens) [compound 466]	HLA-B*07 (Homo sapiens)	++++ (>75% = ++++)
291 (SPSKSLEM; listed as Homo sapiens) [compound 291]	HLA-B*07 (Homo sapiens)	+++ (>50 = +++)
323 (TPHGITDIL; listed as Homo sapiens) [compound 323]	HLA-B*07 (Homo sapiens)	++++ (>75% = ++++)
480 (VPAAPTKAL; listed as Homo sapiens) [compound 480]	HLA-B*07 (Homo sapiens)	+++ (>50 = +++)
26 (SPSFSSTLLSL; listed as Homo sapiens) [compound 26]	HLA-B*07 (Homo sapiens)	++++ (>75% = ++++)
342 (RPRPPKVL; listed as Homo sapiens) [compound 342]	HLA-B*07 (Homo sapiens)	+++ (>50 = +++)
105 (RPRYETGVCA; listed as Homo sapiens) [compound 105]	HLA-B*07 (Homo sapiens)	++++ (>75% = ++++)

In the following, a different substance is considered.
**Query** Form field: reported Peptide exchange of 115 (KTKSLAQQL; listed as Homo sapiens) [compound 115]
**Result** +++ (>50 = +++)

---

STUDY_SYSTEM: HLA-B*07 (Homo sapiens, UniProt P01889)
PROTOCOL_DETAILS: MHC binding assay (UV-ligand exchange, ELISA of stabilized MHC complexes)
RUN_PARAMETERS: peptide exchange yield on HLA-B*07, UV-ligand exchange
MEASUREMENT_KIND: Peptide exchange

SUBSTANCE	RESULT
260 (LVQSSRSEV; listed as Homo sapiens) [compound 260]	++++ (>75% = ++++)
162 (IPIRVDQNGAF; listed as Homo sapiens) [compound 162]	+++ (>50 = +++)
351 (SPYADIIPSA; listed as Homo sapiens) [compound 351]	+++ (>50 = +++)
81 (IAYPSLREAAL; listed as Homo sapiens) [compound 81]	++ (>20% = ++)

**Query** Form field: reported Peptide exchange of 4 (GPKKFIVKL; listed as Homo sapiens) [compound 4]
**Result** +++ (>50 = +++)

**Query** Now consider 355 (APKTSFIAA; listed as Homo sapiens) [compound 355] .
**Result** ++++ (>75% = ++++)

**Query** Now consider 152 (SSASFSSELFRH; listed as Homo sapiens) [compound 152] .
**Result** +++ (>50 = +++)

**Query** Now consider 350 (RPKSTLMNF; listed as Homo sapiens) [compound 350] .
**Result** ++++ (>75% = ++++)

**Query** Now consider 40 (FPRTVKHIDAAL; listed as Homo sapiens) [compound 40] .
**Result** ++++ (>75% = ++++)

**Query** Now consider 279 (APADEPRTVL; listed as Homo sapiens) [compound 279] .
**Result** +++ (>50 = +++)

**Query** Now consider 308 (RPDVVRTLL; listed as Homo sapiens) [compound 308] .
**Result** ++++ (>75% = ++++)

**Query** Now consider 9 (RPDSRLLEL; listed as Homo sapiens) [compound 9] .
**Result** ++++ (>75% = ++++)

**Query** Now consider 259 (VPMPGVQAV; listed as Homo sapiens) [compound 259] .
**Result** ++++ (>75% = ++++)

**Query** Now consider 247 (SPVGVGQRL; listed as Homo sapiens) [compound 247] .
**Result** +++ (>50 = +++)

**Query** Now consider 357 (LPPHIFAI; listed as Homo sapiens) [compound 357] .
**Result** ++ (>20% = ++)

**Query** Now consider 33 (LPRGLSPARQL; listed as Homo sapiens) [compound 33] .
**Result** +++ (>50 = +++)

**Query** Now consider 32 (APMAPGRSPL; listed as Homo sapiens) [compound 32] .
**Result** ++++ (>75% = ++++)

**Query** Now consider 339 (GPQRTTSV; listed as Homo sapiens) [compound 339] .
**Result** +++ (>50 = +++)

**Query** Now consider 48 (RPRYSIGL; listed as Homo sapiens) [compound 48] .
**Result** +++ (>50 = +++)

Reference source for all entries: patent US20220289816A1
